# Test system: OVCAR-8 ovarian
# assay details: NCI tumour cell line growth inhibition, 48 h
Where a SMILES comes first, the peptide text is derived from it. [ ]: non-standard residue; d: D form. The star is where a group is joined. Phe(4-NO2) = N[CH](Cc1ccc([N+](=O)[O-])cc1)C(=O)O; Palmitoyl = CCCCCCCCCCCCCCCC(=O)*; Boc = CC(C)(C)OC(=O)*; OtBu = CC(C)(C)O*
property: TGI

Illustrative cases are given below, each with its answer.
molecule	data value
COC(=O)C(Cc1ccc([N+](=O)[O-])cc1)NC(=O)C(CC(=O)OC(C)(C)C)NC(=O)OC(C)(C)C (stereo not drawn) (Boc-Asp(OtBu)-[Phe(4-NO2)]-OMe; configuration not given here)	> 100 µM
Cc1cc2c(cc1Cl)SC1=NN(C)C(c3ccccc3O)N1S2(=O)=O (stereo not drawn)	> 100 µM
COC1(OC)N=C(N)C2(C#N)/C(=N/N(C)C)CC(C)C12C#N (stereo not drawn)	> 100 µM
CSc1nc2c(ncn2C2OCC(O)C(O)C2O)c(=O)[nH]1 (stereo not drawn)	> 100 µM
CCCCCCCCCCCCCCCC(=O)NC(CCCCN)C(=O)NCC(=O)NC(Cc1ccccc1)C(=O)N1CCCC1C(=O)NC(CO)C(=O)NC(Cc1ccc(O)cc1)C(=O)NC(CCCCN)C(=O)NC(CC(C)C)C(=O)NC(CCCN=C(N)N)C(=O)N1CCCC1C(=O)NCC(N)=O (stereo not drawn) (Palmitoyl-KGFPSYKLRPG-NH2; configuration not given here)	52.8 µM

What TGI value was documented for this molecule, COc1ccc(S(=O)(=O)Nc2ccc(-c3csc(N4C(=O)/C(=C/C=C\c5ccccc5)N=C4c4ccccc4)n3)cc2)cc1Cl ?
88.4 µM

Reported TGI, molecule CCCCCCN(CCCCCC)CC(O)c1cccc2ccc(Cl)cc12 (stereo not drawn) : ____
32.7 µM

Return reported TGI; argument: Cc1ccc(OCCCCCCNCCO)c(C)c1
35.9 µM
